tested on: OV90; assay: Primary qHTS to identify gynecologic anti-cancer compounds using libraries of approved drugs and bioactive compounds (AID 1345084); conditions: Gynecologic cancer cell panel viability, ATPlite luminescence, 48 h; series mostly up to 57.5 µM; also: % is scaled to controls: 0 for no effect and ±100 for the full control effect; nearly all actives have a fitted effect of over 55% in size
Records with an inconclusive call do not appear. Active and inactive are the calls of the source. Calls follow the shape of the dose curve; as a rule, active = well fitted cell-killing curve with a large enough effect; inconclusive = small, poorly fitted or top-dose-only effect, or effect the other way; inactive = flat fitted curve, though single readings scatter.

{"molecule": "C=C(C)[C@H]1C[C@@H](O)C(=C)CC[C@@H](O)C(=C)[C@@H](O)C1", "activity change, negative = cytotoxicity": "inactive"}
{"molecule": "CC1CCC2(O1)C(C)(C)CC(O[C@@H]1O[C@H](CO[C@@H]3OC[C@](O)(CO)[C@H]3O)[C@@H](O)[C@H](O)[C@H]1O)CC2(C)O (some centres undefined)", "activity change, negative = cytotoxicity": "inactive"}
{"molecule": "O=S(=O)(Nc1ccc(C(O)(C(F)(F)F)C(F)(F)F)cc1)c1cccs1", "activity change, negative = cytotoxicity": "inactive"}
{"molecule": "CCC[C@@H]1C[C@@H](C(=O)N[C@@H]([C@H]2O[C@H](SC)[C@H](OP(=O)(O)O)[C@@H](O)[C@H]2O)[C@H](C)Cl)N(C)C1", "activity change, negative = cytotoxicity": "inactive"}

----------
test system: HEK293; assay: Cytotoxic Profiling of Annotated Libraries Using Quantitative High-Throughput Screening (AID 1296008); details: Five cell lines viability, CellTiter-Glo ATP luminescence, 48-72 h; also: nearly all actives have a fitted effect of over 60% in size
Results filed as inconclusive are left out. Calls of active or inactive are those of the source. Calls come from the whole dose curve; as a rule, active = well fitted inhibition curve with a large enough effect; inconclusive = small, poorly fitted or top-dose-only effect; inactive = flat fitted curve, though single readings scatter.
reportedMetric: outcome

Below: 6 molecules and their reported outcome.
{"molecule": "CC(CO[C@@H]1O[C@H](COC(=O)/C=C/c2ccc(O)c(O)c2)[C@@H](O)[C@H](O)[C@H]1O)C1(O)COC(=O)C1 (some centres not stated)", "outcome": "inactive"}
{"molecule": "CC(C)(O)C1CCC2(C)C3C(O)C4C(C13)C42CO (configuration not stated)", "outcome": "inactive"}
{"molecule": "C[C@@H]1O[C@@H](O[C@H]2[C@H](OC(C#N)c3ccc(O)cc3)O[C@H](CO)[C@@H](O)[C@@H]2O)[C@H](O)[C@H](O)[C@H]1O (some centres not stated)", "outcome": "inactive"}
{"molecule": "CC1(C)CC2C(O)C3=C(CC(C)(O)C2C1)C(=O)OC3O (configuration not stated)", "outcome": "inactive"}
{"molecule": "O=C(C1CC1)N1CC[C@@H](Cc2n[nH]c(=O)n2-c2ccc(-c3ccc4occc4c3)cc2)C1", "outcome": "inactive"}
{"molecule": "CCNC(=O)CCC/C=C\\C[C@@H]1[C@@H](/C=C/C(O)CCc2ccccc2)[C@@H](O)C[C@@H]1O (some centres not stated)", "outcome": "inactive"}

// moving on: another record for outcome
Notebook: CC1CCC2C(C(=O)O)=CC3CC(C)(C)CC132 (configuration not stated) , outcome read as inactive

----------
molecular target: Catechol O-methyltransferase (Homo sapiens) (UniProt P21964); experiment: Confirmatory Screen for Target Class Profiling of Small Molecule Inhibitors of Methyltransferases (AID 1745852); conditions: MTase-Glo luminescence, SAH detection, recombinant enzyme; measured here: COMT max response; stronger effect = lower value
Sequence (P21964 whole entry, looked up): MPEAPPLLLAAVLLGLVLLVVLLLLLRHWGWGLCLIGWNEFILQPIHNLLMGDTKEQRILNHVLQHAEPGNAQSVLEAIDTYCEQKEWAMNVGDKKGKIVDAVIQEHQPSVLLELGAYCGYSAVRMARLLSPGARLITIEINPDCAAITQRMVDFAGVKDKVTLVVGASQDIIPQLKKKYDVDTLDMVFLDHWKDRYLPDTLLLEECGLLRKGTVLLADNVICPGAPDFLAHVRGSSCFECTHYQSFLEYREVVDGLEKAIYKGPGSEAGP
reportedMetric: activity (%)
Kindly provide the numeric value in % only, without the unit symbol.

Below: 3 compounds and their reported activity.
{"compound": "O=C(O[C@@H]1O[C@H](CO)[C@@H](O)[C@H](O)[C@H]1O)c1c(O)cc(O)cc1/C=C/c1ccccc1", "systemUnderTest": "Catechol O-methyltransferase (Homo sapiens) (UniProt P21964)", "measurementUnit": "%", "activity": -66.4}
{"compound": "C=C(C)[C@H]1C[C@@H](O)C(=C)CC[C@@H](O)C(=C)[C@@H](O)C1", "systemUnderTest": "Catechol O-methyltransferase (Homo sapiens) (UniProt P21964)", "measurementUnit": "%", "activity": -67}
{"compound": "Cc1ccc2c(c1)C=Cc1cc(C)ccc1C2c1cn(Cc2ccc(C(=O)Nc3nn[nH]n3)o2)c(=O)[nH]c1=S", "systemUnderTest": "Catechol O-methyltransferase (Homo sapiens) (UniProt P21964)", "measurementUnit": "%", "activity": -11}

// moving on: another record for activity
Notebook: `CN1CCC(c2c[nH]c3ccc(NC(=O)c4ccc(F)cc4)cc23)CC1` , activity read as -8.83

----------
experiment: qHTS profiling for inhibitors of Plasmodium falciparum proliferation (AID 504749);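 also: 0% = DMSO vehicle and full inhibition = artemisinin control; nearly all actives have a fitted effect of over 60% in size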; details: P. falciparum in erythrocytes, SYBR Green DNA, 72 h; at 28.7 µM (top of the series); parasite line A
Results filed as inconclusive are left out. Peptide text beside a SMILES is read from it.
reportedMetric: activity, negative = inhibition (%)
Kindly provide the numeric value in % only, without the unit symbol.

Below: 8 molecules and their reported activity, negative = inhibition.
{"molecule": "CC(=O)N[C@@H](CC(=O)O)C(=O)N[C@@H](CCC(=O)O)C(=O)O (Ac-Asp-Glu-OH)", "activity, negative = inhibition / %": 24.6}
{"molecule": "C[C@]12CCC(=O)C=C1CC[C@@H]1[C@@H]2[C@@H](O)C[C@@]2(C)[C@H]1CC[C@]2(O)C(=O)COP(=O)(O)O", "activity, negative = inhibition / %": 1.99}
{"molecule": "O=C(COc1ccc(Cl)cc1)OCCNC12CC3CC(CC(C3)C1)C2", "activity, negative = inhibition / %": 9.51}
{"molecule": "Cc1ccccc1OCC(O)CNCCOc1ccc(C(N)=O)cc1 (stereo not given)", "activity, negative = inhibition / %": 11.2}
{"molecule": "CC(NNC(=O)c1ccccc1)c1ccccc1 (stereo not given)", "activity, negative = inhibition / %": 2.16}
{"molecule": "Nc1c(Br)cc(Br)cc1CNC1CCC(O)CC1 (stereo not given)", "activity, negative = inhibition / %": 8.81}
{"molecule": "CCCCC(C)(O)C/C=C/[C@H]1[C@H](O)CC(=O)[C@@H]1CCCCCCC(=O)OC (stereo not given in full)", "activity, negative = inhibition / %": 0.758}
{"molecule": "Cc1cn([C@H]2C[C@H](O)[C@@H](CO)O2)c(=O)[nH]c1=O", "activity, negative = inhibition / %": 4.1}

Notebook: CC(C(=O)O)c1ccc(N2Cc3ccccc3C2=O)cc1 (stereo not given) , activity, negative = inhibition read as 8.3

Notebook: `C#CCOc1ccc2c(C)cc(=O)oc2c1` , activity, negative = inhibition read as 3.33

Notebook: `CCOc1ccc2c(c1)C(C)=CC(C)(C)N2` , activity, negative = inhibition read as -19.3

----------
tested on: C33A; assay: Primary qHTS to identify gynecologic anti-cancer compounds using libraries of approved drugs and bioactive compounds (AID 1345084); details: Gynecologic cancer cell panel viability, ATPlite luminescence, 48 h; series mostly up to 57.5 µM; also: % is scaled to controls: 0 for no effect and ±100 for the full control effect; nearly all actives have a fitted effect of over 55% in size
Records with an inconclusive call do not appear. The source made the active and inactive calls. The call rests on the fitted dose curve; in most records, active means well fitted cell-killing curve with a large enough effect; inconclusive means small, poorly fitted or top-dose-only effect, or effect the other way; inactive means flat fitted curve, though single readings scatter.
reportedMetric: activity change, negative = cytotoxicity

Below: 4 compounds and their reported activity change, negative = cytotoxicity.
{"compound": "CC1=CC(=O)CC(C)(C)C1CCC(C)OC1OC(COC(=O)c2cc(O)c(O)c(O)c2)C(O)C(O)C1O (stereo not given)", "result": "inactive"}
{"compound": "CC(=O)OC[C@]1(O)[C@H]2[C@H](OC(=O)CC(C)C)OC=C(CO[C@@H]3O[C@H](CO)[C@@H](O)[C@H](O)[C@H]3O)[C@H]2C[C@@H]1O", "result": "inactive"}
{"compound": "COC1=CC(=O)O[C@@H](CCc2ccccc2)[C@@H]1O", "result": "inactive"}
{"compound": "CC(=O)O[C@@H]1C[C@]2(C)[C@@]3(CCC4[C@@]5(C)CC[C@H](O[C@@H]6O[C@H](C(=O)O)[C@@H](O)[C@H](O[C@@H]7O[C@H](CO)[C@H](O)[C@H](O)[C@H]7O[C@@H]7O[C@@H](C)[C@H](O)[C@@H](O)[C@H]7O[C@@H]7OC[C@](O)(CO)[C@H]7O)[C@H]6O[C@@H]6O[C@H](CO)[C@H](O)[C@H](O)[C@H]6O)C(C)(C)C5CC[C@]42C)O[C@@H](O)[C@]12C3CC(C)(C)[C@@H](OC(=O)/C=C/c1ccc(O)c(O)c1)[C@@H]2OC(=O)/C=C/c1ccccc1 (stereo not given in full)", "result": "8.85% [at 6.55 µM] (inactive)"}

// moving on: another record for activity change, negative = cytotoxicity
Notebook: CC1(C)C(=O)N2c3ccccc3[C@]3(CC(n4cnc5ccccc5c4=O)C(=O)O3)[C@H]2N1O (stereo not given in full) , activity change, negative = cytotoxicity read as inactive

----------
biological target: Voltage-gated inwardly rectifying potassium channel KCNH2 (Homo sapiens) (UniProt Q12809); assay: qHTS Assay for Small Molecule Inhibitors of the Human hERG Channel Activity (AID 588834); details: U2OS BacMam hERG, FluxOR thallium flux fluorescence; series mostly up to 46.1 µM;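 also: lower thallium flux fluorescence means stronger hERG block; nearly all actives have a fitted effect of over 50% in size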
Sequence (Q12809 whole entry, looked up): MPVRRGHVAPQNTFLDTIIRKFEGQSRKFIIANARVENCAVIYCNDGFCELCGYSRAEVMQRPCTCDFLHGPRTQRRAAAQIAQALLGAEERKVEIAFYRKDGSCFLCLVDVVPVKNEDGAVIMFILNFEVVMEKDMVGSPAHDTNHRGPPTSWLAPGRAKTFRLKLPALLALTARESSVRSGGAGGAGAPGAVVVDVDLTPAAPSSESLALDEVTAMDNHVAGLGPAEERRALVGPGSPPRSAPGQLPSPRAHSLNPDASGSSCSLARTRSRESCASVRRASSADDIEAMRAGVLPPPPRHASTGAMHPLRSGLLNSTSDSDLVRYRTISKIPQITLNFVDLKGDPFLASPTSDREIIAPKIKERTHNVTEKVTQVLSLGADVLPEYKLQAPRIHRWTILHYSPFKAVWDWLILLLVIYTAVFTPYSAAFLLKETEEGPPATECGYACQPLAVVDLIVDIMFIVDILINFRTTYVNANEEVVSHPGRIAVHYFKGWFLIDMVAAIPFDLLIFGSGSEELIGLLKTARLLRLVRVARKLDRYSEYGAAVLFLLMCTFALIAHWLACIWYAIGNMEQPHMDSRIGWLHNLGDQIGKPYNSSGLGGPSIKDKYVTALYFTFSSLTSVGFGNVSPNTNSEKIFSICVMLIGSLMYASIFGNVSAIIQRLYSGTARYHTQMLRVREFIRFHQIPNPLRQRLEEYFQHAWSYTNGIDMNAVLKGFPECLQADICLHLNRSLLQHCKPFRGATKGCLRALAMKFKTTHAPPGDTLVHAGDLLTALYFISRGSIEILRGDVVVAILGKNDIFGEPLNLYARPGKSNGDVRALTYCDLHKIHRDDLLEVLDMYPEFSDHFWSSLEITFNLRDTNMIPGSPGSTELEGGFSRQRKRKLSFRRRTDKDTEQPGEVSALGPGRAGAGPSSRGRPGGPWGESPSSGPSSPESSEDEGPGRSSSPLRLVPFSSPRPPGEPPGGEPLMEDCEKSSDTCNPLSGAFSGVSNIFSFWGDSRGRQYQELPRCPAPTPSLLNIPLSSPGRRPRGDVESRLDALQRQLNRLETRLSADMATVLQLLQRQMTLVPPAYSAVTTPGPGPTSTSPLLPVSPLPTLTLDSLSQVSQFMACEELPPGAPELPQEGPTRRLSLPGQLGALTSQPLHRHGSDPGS
Inconclusive results are not listed. Activity calls are given as the source filed them. Calls come from the whole dose curve; as a rule, active = well fitted inhibition curve with a large enough effect; inconclusive = small, poorly fitted or top-dose-only effect; inactive = flat fitted curve, though single readings scatter.
Tick one outcome: active, inactive

Take a look at these entries with their results.
{"compound": "CCC(=O)O[C@]1(C(=O)CCl)[C@@H](C)C[C@H]2[C@@H]3C[C@H](F)C4=CC(=O)C=C[C@]4(C)[C@@]3(F)[C@@H](O)C[C@@]21C", "labelClass": "inactive"}
{"compound": "CN1CCC(CN2c3ccccc3Sc3ccccc32)C1 (configuration not stated)", "labelClass": "active"}
{"compound": "CCC(=O)O[C@@H]1CC(=O)O[C@H](C)C/C=C/C=C/[C@H](O)[C@H](C)C[C@H](CC=O)[C@H](O[C@@H]2O[C@H](C)[C@@H](O[C@H]3C[C@@](C)(O)[C@@H](OC(=O)CC)[C@H](C)O3)[C@H](N(C)C)[C@H]2O)[C@H]1OC", "labelClass": "inactive"}
{"compound": "O=C1CSC2(CCN(CCCN3c4ccccc4Sc4ccc(Cl)cc43)CC2)N1", "labelClass": "active"}
{"compound": "C[C@@H]1CCC2[C@@H](C)[C@@H](O)O[C@@H]3O[C@@]4(C)CC[C@@H]1[C@@]23OO4 (some centres not stated)", "labelClass": "inactive"}
{"compound": "CCN(CC)CCOc1ccc(-c2nc3cc(Cl)ccc3s2)cc1", "labelClass": "active"}

Turning now to a further record.
How did this test come out for `CC(C)C(=O)OCC(=O)[C@@]12O[C@H](C3CCCCC3)O[C@@H]1C[C@H]1[C@@H]3CCC4=CC(=O)C=C[C@]4(C)[C@H]3[C@@H](O)C[C@@]12C` ?
active

Recorded values, source PubChem BioAssay (NCATS).
